Data provenance is patent US7674792B2.

- Protocol notes: solubility in pH 7.4 phosphate buffer by HPLC
- Format: physicochemical
- Run conditions: 25 °C, aqueous buffer; sodium salt; pH 7.4, 0.05M phosphate buffer; maximum total concentration 200 uM; 25 deg; read-out: Solvent Solubility at 25 deg, Water pH 7.4
Structures can show the parent of a compound that is named as a salt.
Test readout: solubility (µM)

INSERT INTO results (molecule, units_of_measure, test_value) VALUES
  ('O=C1NC(=Nc2c(Cl)cccc2Cl)S/C1=C\c1ccc2ncccc2c1 [Compound B · Na, sodium salt, reference compound]', 'µM', 6),
  ('O=C1NC(=Nc2c(Cl)cccc2Cl)S/C1=C\c1ccc2nccnc2c1 [Compound A · Na, sodium salt]', 'µM', 31);
